# Lookup of reported melting point keyed by entry
quantityKind: melting point

* O=C1Cc2ccccc2C(c2ccccc2)CN1 (stereo not given) | 154 to 155 °C
* COC(=O)c1cc(S(=O)(=O)N=CN(C)C)ccc1Cl | 140 to 141 °C
* Cc1cccc2sc3ccccc3c(=O)c12 | 107 to 132 °C
* Cc1oc(-c2ccccc2)nc1COc1ccc2cc(CCCCc3nnn[nH]3)oc2c1 | 114 to 115 °C
* CCCC(=O)C(=CNc1cscc1OC)C(=O)OCC | 89 to 91 °C
* COc1ccc2c(c1)C(=O)c1nc(-c3ccccc3)sc1C2=O | 221 °C
* COc1ccc2cc3c(Br)nn(C(C)C)c3nc2c1 | 130 to 131 °C
* Cc1cc(C(C)(C)C)c(O)c([N+](=O)[O-])c1[N+](=O)[O-] | 104 to 105 °C
* Cc1nc2ccc(CNS(=O)(=O)c3ccccc3)cc2n1Cc1ccccc1Cl | 164 to 167 °C
* O=C(O)CCC(CS(=O)(=O)c1ccc2ccccc2c1)C(=O)N(CCC1CCCCC1)CCC1CCCCC1 (stereo not given) | 138 to 140 °C

----------
quantityKind: melting point

- Cn1cc(C(=O)O)c(=O)c2cc3cc(F)c(N4CCNC(c5ccco5)C4)c(F)c3nc21 (racemic): 295 to 296 °C
- COc1ccc(N=C=O)cc1: 83 to 84 °C
- CCCCn1c2ccc(C)cc2c(=O)c2c1cnn2C: 262 °C
- OC1CSC(Oc2cc(-c3ccc(F)nc3)cc(F)c2F)C(O)C1O (centres undefined): 179 °C
- COc1ccccc1Nc1nc2c(-c3ccc(C(F)(F)F)cc3)cccn2n1: 184 to 186 °C
- C[Si](C)(ON(Cc1ccccc1)Cc1ccccc1)ON(Cc1ccccc1)Cc1ccccc1: 50 to 53 °C
- Cc1ccc(S(=O)(=O)N2[C@@H](C(N)=O)CC[C@H]2c2ccc(F)cc2)cc1 (racemic): 137 °C
- COc1ccc(-c2cc(C(F)F)nn2-c2ccc(S(N)(=O)=O)c(F)c2)cc1F: 167 to 169 °C
- CNC(C)C1CCN(c2nc3c(cc2F)c(=O)c(C(=O)O)cn3C2CC2)C1 (centres undefined): 199 to 202 °C

----------
Listing: melting point of selected molecules
quantityKind: melting point

* CCSc1nc2c(cc1F)c(=O)c(C(=O)O)cn2CC | 219 to 221 °C
* CCOC(=O)c1c(CN(CC)CC)nc2n(Cc3ccccc3)c3ccccc3n12 | 44 to 45 °C
* COC(CN(C)C(=O)Nc1nnc(C(C)Oc2ccccc2)s1)OC (stereo not given) | 117 to 121 °C
* CCCc1nc2cnc3cccnc3c2n1CC1(O)CCOC1 (stereo not given) | 151 to 152 °C
* [N-]=[N+]=Nc1nc(NC(=O)c2ccccc2)nc2c1ncn2CC(O)CF (racemic) | 198 °C
* CON(C)C(=O)c1c(-c2ccc(Cl)cc2)nsc1-c1ccccc1 | 119 to 120 °C
* CN1CCC2(CCc3c(C4=C(c5cn(C)c6ccccc56)C(=O)OC4=O)c4ccccc4n3C2)C1 (stereo not given) | 238 to 240 °C
* CCOC(=O)CN1CCN(c2ccccc2[N+](=O)[O-])CC1 | 122 °C
* CCCC1NS(=O)(=O)N(CCl)C1=O (stereo not given) | 62 to 63.5 °C
* COc1ccc(C(=O)N2c3ccccc3C(N3CCCCc4ccccc43)=CC2C)cc1OC (stereo not given) | 151 to 152 °C
